The origin of these recorded values is ChEMBL document CHEMBL3576781.

Record type: pKi measurement. Applies to: Protease (Human immunodeficiency virus 1)
When answering, recall that pKi equals minus log10 of the concentration in mol/L, and write that number alone.

{"Structure smiles string": "CC(C)CN(C[C@@H](O)[C@H](Cc1ccccc1)NC(=O)O[C@H]1CO[C@H]2OCC(F)(F)[C@H]21)S(=O)(=O)c1ccc(N)cc1", "pKi": 11.24}

**Query** Please report the measured pKi for COc1ccc(S(=O)(=O)N(CC(C)C)C[C@@H](O)[C@H](Cc2ccccc2)NC(=O)O[C@H]2CO[C@H]3OC[C@H](OC)[C@H]32)cc1 tested on Protease (Human immunodeficiency virus 1).
Sequence (Q9YQ12 whole entry): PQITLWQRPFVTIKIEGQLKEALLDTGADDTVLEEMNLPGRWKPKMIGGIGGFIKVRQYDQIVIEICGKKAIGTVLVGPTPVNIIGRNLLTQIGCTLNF
**Result** 11.54
